Data credit: patent US20180127503A1

- test.target: T1, human ROR2 expressed on the cell surface (human, UniProt Q01974 34-943)
- T1 construct: Endogenous ROR2 of human tumour cell lines; also called cell surface ROR2; ROR2 on tumour cell lines
- T1 sequence (Q01974 34-943 limits assumed): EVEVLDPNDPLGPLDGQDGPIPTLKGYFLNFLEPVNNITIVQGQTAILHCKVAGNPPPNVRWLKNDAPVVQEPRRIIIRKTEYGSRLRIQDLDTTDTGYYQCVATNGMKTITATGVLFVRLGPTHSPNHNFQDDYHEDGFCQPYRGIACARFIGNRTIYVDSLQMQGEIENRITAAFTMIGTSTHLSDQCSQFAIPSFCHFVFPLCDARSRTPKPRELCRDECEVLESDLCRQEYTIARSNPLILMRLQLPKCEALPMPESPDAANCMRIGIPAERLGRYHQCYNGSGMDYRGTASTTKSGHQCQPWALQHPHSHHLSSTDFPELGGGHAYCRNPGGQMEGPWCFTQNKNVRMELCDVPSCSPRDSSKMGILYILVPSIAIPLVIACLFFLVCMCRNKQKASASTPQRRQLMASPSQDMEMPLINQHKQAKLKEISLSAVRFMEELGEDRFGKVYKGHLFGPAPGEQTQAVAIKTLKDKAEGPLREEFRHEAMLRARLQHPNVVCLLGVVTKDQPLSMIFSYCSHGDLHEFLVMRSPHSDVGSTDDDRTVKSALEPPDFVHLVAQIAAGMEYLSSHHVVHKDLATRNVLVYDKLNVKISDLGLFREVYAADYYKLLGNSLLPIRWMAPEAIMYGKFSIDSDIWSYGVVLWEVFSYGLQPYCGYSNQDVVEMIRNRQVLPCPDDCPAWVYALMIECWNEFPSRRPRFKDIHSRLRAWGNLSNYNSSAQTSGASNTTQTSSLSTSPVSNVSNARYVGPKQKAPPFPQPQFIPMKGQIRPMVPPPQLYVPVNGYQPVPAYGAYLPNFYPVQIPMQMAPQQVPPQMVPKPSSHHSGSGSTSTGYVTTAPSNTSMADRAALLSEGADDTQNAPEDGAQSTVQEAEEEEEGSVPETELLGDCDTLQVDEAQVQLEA
- assay.remarks: flow cytometry, TC71 cells (EW/PNET)
- Set-up: unit not given here
- Protocol: Human tumour cell lines were authenticated using short tandem repeat (STR) analysis. They were cultured in RPMI1640 (Cellgro) supplemented with 10% fetal bovine serum (FBS, Life Technologies) at 37° C. in a 5% CO₂ humidified incubator. They were harvested, washed in PBS and reacted with ROR2-IgG at 1 ug/10⁶ tumour cells on ice for an hour. #901-IgG was used as a negative control at the same dose. […] Staining was analyzed on a FACSCalibur (BD Biosciences). […]
reported.property: binding intensity
# answer = number (no unit)

Req: Read the entry ROR2-240 full length human IgG1 antibody (antibody, V domains shown, also called clone #240 IgG1) VH: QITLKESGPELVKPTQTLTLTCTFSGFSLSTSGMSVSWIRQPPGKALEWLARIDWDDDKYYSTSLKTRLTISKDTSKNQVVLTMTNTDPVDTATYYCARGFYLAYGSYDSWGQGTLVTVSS VL: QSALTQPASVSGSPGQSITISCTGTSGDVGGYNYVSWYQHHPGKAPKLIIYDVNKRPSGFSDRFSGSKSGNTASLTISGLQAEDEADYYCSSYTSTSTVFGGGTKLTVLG and write its reported binding intensity.
Resp: 10

Req: Answer with the recorded binding intensity of ROR2-23 full length human IgG1 antibody (antibody, V domains shown, The light chain of clone 023 is labelled kappa; also called clone #23; clone #023 IgG1) VH: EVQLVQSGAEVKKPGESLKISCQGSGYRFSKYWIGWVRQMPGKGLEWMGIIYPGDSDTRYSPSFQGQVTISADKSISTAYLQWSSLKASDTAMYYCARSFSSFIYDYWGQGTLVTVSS VL: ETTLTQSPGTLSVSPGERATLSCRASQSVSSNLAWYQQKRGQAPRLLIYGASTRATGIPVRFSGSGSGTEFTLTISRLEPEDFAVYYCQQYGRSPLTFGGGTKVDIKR only.
Resp: 46
